Attribution: the supplement of paper PMC9732359

# METHOD SUMMARY: protein stability index of a GFP-peptide fusion (yeast GPS) (PSI 1-4); higher = more stable; sorted into four equal gates, so the index is relative within each strain
# ASSAY CONDITIONS: pdr5∆
// class assignment uses protein stability index with these ranges: lower segment: < 2; middle segment: ≥ 2 and < 3; upper segment: ≥ 3

input_sequence="TEHSKVTRFDEKQIEEL [SRB6]" class_assignment="upper segment"
input_sequence="DKLTRVHDKIWCCRSGS [PRE3]" class_assignment="middle segment"
input_sequence="SAIIENAFRKEELLLKD [GAL11]" class_assignment="lower segment"
input_sequence="KGPLLIERIGHLLSINY [PCI8]" class_assignment="middle segment"
input_sequence="IFKGIGGNFKDLSTLVH [GAL11]" class_assignment="lower segment"
input_sequence="VEVDITLSPNVTDSSLL [GRR1]" class_assignment="middle segment"
input_sequence="PFQVSSFVKETKLHSGD [SRB8]" class_assignment="middle segment"
input_sequence="ELEQLVEFNRKVVIPNL [RPN3]" class_assignment="middle segment"
input_sequence="LKEYQSKIIVFPRNGKA [RPL13A]" class_assignment="middle segment"
input_sequence="SSATIVLCLTRSSYMLE [YCG1]" class_assignment="middle segment"
input_sequence="VAEIEKTADVKRQYVKQ [RPL20A]" class_assignment="upper segment"
input_sequence="AIVFEEIKNWISDIPYV [YMR129W/POM152]" class_assignment="lower segment"

###

# METHOD SUMMARY: protein stability index of a GFP-peptide fusion (yeast GPS) (PSI 1-4); higher = more stable; sorted into four equal gates, so the index is relative within each strain
# ASSAY CONDITIONS: doa10∆
TEST READOUT: protein stability index

input_sequence="VVNSNFAKEHNATVNLA [YJR042W/NUP85]" endpoint_value=2.82
input_sequence="AHRIMLTNILRMMGCVK [FAS2]" endpoint_value=1.86
input_sequence="RLTAKRLIEHDPVEGNL [SRP14]" endpoint_value=2
input_sequence="VAMCFVINKLDRLILDL [SNU114]" endpoint_value=2.23
input_sequence="VFSHAQTAVTCESCSTV [RPS27B]" endpoint_value=1.57
input_sequence="RRIPKRMRNRALREMRK [POP1]" endpoint_value=3.26
input_sequence="MTLKEMYQMITMGGNAE [SMC4]" endpoint_value=2.72

###

Parameter: protein stability index. Scope: all listed entries.
# METHOD SUMMARY: protein stability index of a GFP-peptide fusion (yeast GPS) (PSI 1-4); higher = more stable; sorted into four equal gates, so the index is relative within each strain
# ASSAY CONDITIONS: doa10∆
TEST READOUT: protein stability index

input_sequence="ARIIAAIPNPEDVVAIS [RPS0A]" endpoint_value=1.8
input_sequence="ELYSFQQLVDSEKRLDH [SNF12]" endpoint_value=1.35
input_sequence="STLTTISGNPPLLYNSL [SRB5]" endpoint_value=2.66
input_sequence="NPVTLNEDSKAFHTAVL [NUT1]" endpoint_value=2.81
input_sequence="KSSWRQEWLANLKLISV [SIR4]" endpoint_value=1.71
input_sequence="PAWRVWLNFLRGTIPLL [PRP8]" endpoint_value=2.38
input_sequence="IEETSAAIKDLDDFGEE [RRP43]" endpoint_value=2.85
input_sequence="DSDKGSKLNELKKELKL [SMC2]" endpoint_value=3.56
